# Tested on: Chordin-like protein 2 (CHRDL2)
# Assay summary: CHRDL2 small-molecule binders, primary screen, biochemical, small-molecule microarray, 635 nm fluorescence (AID 1126);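 further: printed compound slides probed with Chrdl2 protein at 4 µg/mL for 1 h at 4 C; score merges 667 nm emission intensity with signal to noise over three replicate slides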
# Particulars: small-molecule microarray binding, fluorescence 635 nm; higher = more signal
Label MET for high-side composite z-score (at or above -0.3) and NOT MET for low-side composite z-score (below it).

A selection of reference data follows.
O=C(NCc1ccccc1)[C@]1(CCS(=O)(=O)c2ccccc2)N=C(c2ccc(OCCCO)cc2)O[C@@H]1c1ccccc1 ... MET
CCOC(=O)C[C@H]1[C@H](OC(=O)c2ccc(-c3ccccc3)cc2)[C@@H](NC(=O)c2ccc3ccccc3c2)c2cc(OCCCO)ccc2N1C(=O)Cc1ccc(OC)cc1 ... NOT MET

Q. Please indicate if the recorded composite z-score for `COCC(=C=CC[C@H](O)c1ccc(OCCO)cc1)C[C@H](O)c1cc(Cl)cc(Cl)c1O` meets or exceeds -0.3.
A. MET

Q. Please indicate if the recorded composite z-score for COc1ccc(C(O)C2C=CC3C(=O)NC(=O)C3N2Nc2ccccn2)cc1OCc1ccccc1 (centres undefined) meets or exceeds -0.3.
A. MET

Q. Please indicate if the recorded composite z-score for `CCOC(=O)C[C@H]1[C@H](OC(=O)Cc2ccc3c(c2)OCO3)[C@@H](NC(=O)C2CCCCC2)c2cc(OCCCO)ccc2N1C(=O)Cc1ccc(OC)cc1` meets or exceeds -0.3.
A. MET

Q. Please indicate if the recorded composite z-score for `CCOC(=O)C1=CC[C@@H](c2ccccc2)N(S(=O)(=O)c2ccc(C)cc2)[C@H]1C(=O)OCC` meets or exceeds -0.3.
A. NOT MET

Q. Please indicate if the recorded composite z-score for `CN(C)CCCNC(=O)[C@@]1(Cc2ccccc2I)c2ccccc2C(=O)N(Cc2ccccc2C(F)(F)F)[C@H]1c1ccc(CO)cc1` meets or exceeds -0.3.
A. NOT MET

Q. Please indicate if the recorded composite z-score for `COc1ccc(CCNC(=O)[C@@H]2c3ccccc3C(=O)N(Cc3ccc(OC(F)(F)F)cc3)[C@H]2c2ccc(CO)cc2)cc1` meets or exceeds -0.3.
A. MET

Q. Please indicate if the recorded composite z-score for `COCCOC(=O)N1C(=O)[C@@]2(c3cc(C#CCCO)ccc31)[C@H](c1ccccc1OCCO)N1[C@H](c3ccccc3)[C@H](c3ccccc3)OC(=O)[C@H]1[C@@H]2C(=O)N1CCN(c2ncccn2)CC1` meets or exceeds -0.3.
A. MET

Q. Please indicate if the recorded composite z-score for `O=C1C[C@]2(c3ccc([N+](=O)[O-])cc3)C(=O)N(CC(F)(F)F)c3cc(CO)ccc3[C@H]2N1CC12CC3CC(CC(C3)C1)C2` meets or exceeds -0.3.
A. MET

Q. Please indicate if the recorded composite z-score for `CN(C)CCCCCCNC(=O)[C@H]1C[C@H]2C(=O)N[C@@H](CCCCN)C(=O)N2[C@H]1c1ccc(O)cc1` meets or exceeds -0.3.
A. MET

Q. Please indicate if the recorded composite z-score for `C[C@]1(C(=O)NCc2ccccc2)c2ccccc2C(=O)N(Cc2cc(F)cc(C(F)(F)F)c2)[C@H]1c1ccc(CO)cc1` meets or exceeds -0.3.
A. NOT MET

Q. Please indicate if the recorded composite z-score for `CO[C@H]1O[C@H](CO)[C@@H](OC(=O)Nc2ccc(Oc3ccccc3)cc2)[C@H](OC(=O)Nc2ccccc2)[C@H]1OC(=O)Nc1ccccc1` meets or exceeds -0.3.
A. MET
